Data provenance is PubChem BioAssay (EPA / NIEHS).

# protocol text: ATG_DR4_LXR_CIS: Attagene CIS-FACTORIAL HepG2 Assay for human Liver X Receptor (LXR), DR4 submotif (AID 2282929)
# assay conditions: HepG2 Attagene DR4 cis-reporter, mRNA transcription; actives raise or lower the signal
Activity calls are given as the source filed them. How the source made its calls: active means hit-call score of the fitted dose curve at least 0.9, where 1 is the maximum; inactive means score below 0.9.
Possible outcomes: active, inactive

| molecule | qualitative label |
| --- | --- |
| CCCCOCN(C(=O)CCl)c1c(CC)cccc1CC | inactive |
| CC(C)N1C(=O)N(c2ccccc2)CSC1=NC(C)(C)C | inactive |
| COc1ccc(-c2ccccc2)cc1NNC(=O)OC(C)C | inactive |
| N#CN=C1SCCN1Cc1ccc(Cl)nc1 | inactive |
| CC(C)Oc1cccc(NC(=O)c2ccccc2C(F)(F)F)c1 | inactive |
| N#Cc1c(Cl)cccc1Cl | inactive |
| Cc1nc(N(C)C)nc(OC(=O)N(C)C)c1C | inactive |
| CCOc1cc(C(C)(C)C)ccc1C1COC(c2c(F)cccc2F)=N1 (stereo unspecified) | active |
| C=CCOC(=O)C(C)(C)OC(=O)c1cc(-n2c(=O)cc(C(F)(F)F)n(C)c2=O)ccc1Cl | inactive |
| CO/N=C(/C1=NOCCO1)c1ccccc1Oc1ncnc(Oc2ccccc2Cl)c1F | inactive |
| CCCC(=NOCC)C1=C(O)CC(CC(C)SCC)CC1=O (stereo unspecified) | inactive |
| Nc1cnn(-c2ccccc2)c(=O)c1Cl | inactive |
| O=c1n(Cl)c(=O)n(Cl)c(=O)n1Cl | inactive |
| CC1(C)CCC(=Cc2ccc(Cl)cc2)C1(O)Cn1cncn1 (stereo unspecified) | inactive |
| Clc1nc(Cl)nc(Nc2ccccc2Cl)n1 | inactive |
| O=C(Nc1ccccc1-c1ccc(Cl)cc1)c1cccnc1Cl | inactive |
| CC(C)Nc1nc(Cl)nc(NC(C)C)n1 | inactive |
| Cc1c(COC(=O)[C@@H]2[C@H](/C=C(\Cl)C(F)(F)F)C2(C)C)cccc1-c1ccccc1 | inactive |
| CCOP(=S)(OCC)Oc1nc(Cl)n(C(C)C)n1 | active |
| Cc1cc(C)nc(Nc2ccccc2)n1 | inactive |
| CN/C(=N\[N+](=O)[O-])NCc1cnc(Cl)s1 | inactive |
| Clc1cccc(C(Cl)(Cl)Cl)n1 | inactive |
| CC(C)C1(C)N=C(c2ncccc2C(=O)O)NC1=O (stereo unspecified) | inactive |
| OC(c1ccc(Cl)cc1)(c1ccc(Cl)cc1)C(Cl)(Cl)Cl | inactive |
| CCCN(CC)CC1COC2(CCC(C(C)(C)C)CC2)O1 (stereo unspecified) | inactive |
| CCSC(=O)N1CCCCCC1 | inactive |

* * *

# protocol text: STM_H9_OrnCyssISnorm_ratio: Stemina devTOX quickPredict H9 human embryonic stem cell (hESC)-based Assay for Ornithine (ORN):Cystine (CYSS) Ratio (AID 2283714)
Results filed as inconclusive are left out. Active and inactive are the calls of the source. Rule for the calls: active = hit-call score of the fitted dose curve at least 0.9, where 1 is the maximum; inconclusive = response in the unintended direction; inactive = score below 0.9.

| molecule | AC50 |
| --- | --- |
| CC1(C)C(C=C(Cl)Cl)C1C(=O)OC(C#N)c1cccc(Oc2ccccc2)c1 (centres undefined) | inactive |
| CC1(C)CCC(=Cc2ccc(Cl)cc2)C1(O)Cn1cncn1 (centres undefined) | 35 µM (active) |
| CCN(CC)C(=O)C(C)Oc1cccc2ccccc12 (centres undefined) | 6.66 µM (active) |
| CCNP(=S)(OC)O/C(C)=C/C(=O)OC(C)C (centres undefined) | 72.6 µM (active) |
| COc1ccc(-c2ccccc2)cc1NNC(=O)OC(C)C | 36.1 µM (active) |
| CCCCC(O)(Cn1cncn1)c1ccc(Cl)cc1Cl (centres undefined) | 76.5 µM (active) |
| CCOc1nc(C(Cl)(Cl)Cl)ns1 | 9.92 µM (active) |
| CCCN(CC)CC1COC2(CCC(C(C)(C)C)CC2)O1 (centres undefined) | 1.3 µM (active) |
| COCc1cnc(C2=NC(C)(C(C)C)C(=O)N2)c(C(=O)O)c1 (centres undefined) | inactive |
| CC(C)Nc1nc(Cl)nc(NC(C)C)n1 | 5.16 µM (active) |
| CCNC(=O)NC(=O)C(C#N)=NOC | 77 µM (active) |
| CCCCC(C#N)(Cn1cncn1)c1ccc(Cl)cc1 (centres undefined) | 77.9 µM (active) |
| O=C(Nc1ccccc1-c1ccc(Cl)cc1)c1cccnc1Cl | 72.1 µM (active) |
| CCOP(=S)(OCC)Oc1nc(Cl)n(C(C)C)n1 | 54.9 µM (active) |
